src = the supplement of paper PMC9170038

# System: MS2 coat protein
# METHOD: apparent KD of MS2 coat protein; designed switch direction (-1 OFF switch, 1 ON switch): -1; higher = weaker reporter binding
# MEASUREMENT CONDITIONS: input ligand: none
READOUT LABEL: apparent KD of MS2 coat protein (nM)
Report as a plain number; the unit nM is understood.

Known results for sequences:
INSERT INTO assay_data (sequence_string, target_or_system, numeric_result) VALUES
  ('UUGCAGUCGUCAGGAUAUAGUAUUACGGCCUUUCAUUUCUUCAUACAUGAGGAUCACCCAUGUCGCUAGAAGGGAUUAUCGAUU [salish99_ExNG2_r04_106] (Eterna round: R96, puzzle: Exclusion NG 2)', 'MS2 coat protein', 23),
  ('GCAGAAUGAGUUAGGAUAUGAUGAUUUUUCGGAAAUCAGAAGGAACUUGAGGAUCACCCAAGUUAAGAUAGGGU [JR_BMEx4_Sub065] (Eterna round: R97, puzzle: Brourd''s mod of Exclusion 4)', 'MS2 coat protein', 85),
  ('AUCCUUAACAAGGAUAUCGGGCGGGAAAUUGUUUGAGAAGGUGUAACAUGAGGAUCACCCAUGUUAAACGUGGA [-18.8, -18.6 kcal, A 32%] (Eterna round: R97, puzzle: Exclusion 6)', 'MS2 coat protein', 23.4);

## Task # get_value(readout='apparent KD of MS2 coat protein', item= UUUAUGUCAGGAUAUGAUUAGAUCUACUUCGGUAGAUCUAAUCAGAAGGGACAUGAGGAUCACCCAUGUAGUUU [Ex4 - 3 - 13] (Eterna round: R96, puzzle: Exclusion 4) )
## Result 180

## Task # get_value(readout='apparent KD of MS2 coat protein', item= UCAACGCAAGGAUAUACUUGCGGUGAUGUUCGAAAUCUUCUACUUGAGGAUCACCCAAGUAGAAGGUGCGGUGA [jl-ex2.4.65 ViennaUCT mod] (Eterna round: R97, puzzle: Exclusion 2) )
## Result 12.9

## Task # get_value(readout='apparent KD of MS2 coat protein', item= GUUGAUGUAGGAUAUACAUGAGGAUCACCCAUGUUGGUGCCCUAACCUAUUGGUGUACGUAGAAGGGCGGACUC [Eternabot (L2) Solution 96] (Eterna round: R97, puzzle: Exclusion 3) )
## Result 95.2

## Task # get_value(readout='apparent KD of MS2 coat protein', item= CCGGUAGUAGUCAGGAUAUUCGAUUUUCACCAAGCGAAGAAGGGACAUGAGGAUCACCCAUGUUAGGUGAACGG [Eternabot (L2) Solution 68] (Eterna round: R97, puzzle: Brourd's mod of Exclusion 4) )
## Result 37.6

## Task # get_value(readout='apparent KD of MS2 coat protein', item= AUCGUGUGAGGAUAUCGAUUAUGGAGGUCUAGGUCCAUACGCGAGAAGGCACAUGAGGAUCACCCAUGUAAUGG [jl-ex4-4.31 ViennaUCT mod] (Eterna round: R97, puzzle: Exclusion 4) )
## Result 309

## Task # get_value(readout='apparent KD of MS2 coat protein', item= AGUAUGUCAGGAUAUCUCGGGUAGUCGACAACGGCUACCGAAGAGAAGGGACAUGAGGAUCACCCAUGUACCAU [EX4 B.26] (Eterna round: R97, puzzle: Exclusion 4) )
## Result 24.9
